measured-on: CDK2/Cyclin A (Homo sapiens, UniProt P24941)
assay-explanation: CDK2/cyclin A inhibitory assay, Z'-LYTE FRET kinase assay
Format: biochemical
reported-conditions: concentration of 100 micro molar; 1000 ng/ml kinase, 1000 µM ATP
Output label 1 for % inhibition on CDK2/cyclin A not less than 30%; output label 0 otherwise.

Consider the following illustrative entries.
# compound, measured-on, classification
rows = [
    ("COc1cc(OC)c(C2=CCN(C)CC2)c2c1C(=O)/C(=C/c1ccccc1C)O2 [NMA3]", "CDK2/Cyclin A (Homo sapiens, UniProt P24941)", "label 0"),
    ("CCN1CC=C(c2c(OC)cc(OC)c3c2O/C(=C\\c2ccccc2Br)C3=O)CC1 [NEA3]", "CDK2/Cyclin A (Homo sapiens, UniProt P24941)", "label 1"),
    ("COc1cc(OC)c(C2=CCN(C(C)C)CC2)c2c1C(=O)/C(=C/c1ccc(Cl)cc1)O2 [NISOA6]", "CDK2/Cyclin A (Homo sapiens, UniProt P24941)", "label 1"),
    ("CCCN1CC=C(c2c(OC)cc(OC)c3c2O/C(=C\\c2ccc(Cl)cc2)C3=O)CC1 [NPA4]", "CDK2/Cyclin A (Homo sapiens, UniProt P24941)", "label 0"),
    ("CCN1CC=C(c2c(OC)cc(OC)c3c2O/C(=C\\c2ccc(Cl)cc2)C3=O)CC1 [NEA6]", "CDK2/Cyclin A (Homo sapiens, UniProt P24941)", "label 0"),
    ("COc1cc(OC)c(C2=CCN(C)CC2)c2c1C(=O)/C(=C/c1ccccc1)O2 [NMA1]", "CDK2/Cyclin A (Homo sapiens, UniProt P24941)", "label 0"),
    ("CCCN1CC=C(c2c(OC)cc(OC)c3c2O/C(=C\\c2ccccc2Br)C3=O)CC1 [NPA3]", "CDK2/Cyclin A (Homo sapiens, UniProt P24941)", "label 0"),
    ("CCCN1CC=C(c2c(OC)cc(OC)c3c2O/C(=C\\c2ccc(N(C)C)cc2)C3=O)CC1 [NPA2]", "CDK2/Cyclin A (Homo sapiens, UniProt P24941)", "label 0"),
]

Now look at this one.
Could you tell me if the measured % inhibition on CDK2/cyclin A of CCN1CC=C(c2c(OC)cc(OC)c3c2O/C(=C\c2ccccc2OC)C3=O)CC1 [NEA2] reaches 30% or more?
label 0

* * *

Measured % inhibition on CDK2/cyclin A, listed per entry.
measured-on: CDK2/Cyclin A (Homo sapiens, UniProt P24941)
assay-explanation: CDK2/cyclin A inhibitory assay, Z'-LYTE FRET kinase assay
Type: biochemical
reported-conditions: concentration of 100 micro molar; 1000 ng/ml kinase, 1000 µM ATP
Numbers only here, please. The scale is %.

Study these solved cases before continuing.
# molecule, % inhibition on CDK2/cyclin A (%)
rows = [
    ("COc1ccc(/C=C2\\Oc3c(c(OC)cc(OC)c3C3=CCN(C)CC3)C2=O)cc1 [NMA5]", 25.098),
    ("COc1cc(OC)c(C2=CCN(C)CC2)c2c1C(=O)/C(=C/c1ccc(N(C)C)cc1)O2 [NMA4]", 29.543),
]

// next item, % inhibition on CDK2/cyclin A requested
# % inhibition on CDK2/cyclin A lookup, item COc1cc(OC)c(C2=CCN(C)CC2)c2c1C(=O)/C(=C/c1ccccc1Br)O2 [NMA2]
35.350
